As shown below, each of these compounds has a reported TGI value.
- Tested on: SNB-19 CNS
- Procedure details: NCI tumour cell line growth inhibition, 48 h

{"columns": ["Compound", "TGI"],
 "data": [
  ["O=C(Nc1ccccc1)OC1OC(COC(=O)c2ccccc2)C(OC(=O)c2ccccc2)C1OS(=O)(=O)c1ccc([N+](=O)[O-])cc1 (centres undefined)", "> 100 µM"],
  ["OC1CCCC2CCC[N-]C12.OC1CCCC2CCC[N-]C12.[O]=[V][OH] (centres undefined)", "> 100 µM"],
  ["O=C(Nc1cc(Cl)cc(Cl)c1)c1cccc(NC2=C(Cl)C(=O)N(Cc3ccccc3)C2=O)c1", "> 100 µM"],
  ["COc1ccc(CNc2nc(NCc3ccc(OC)cc3)nc(NC3CCCC3)n2)cc1", "> 100 µM"],
  ["COc1ccc(C2C(C#N)=C(N)Oc3c2sc2c(Br)cccc32)cc1 (centres undefined)", "21.6 µM"],
  ["C[N+](C)(C)c1cc[c]([Sn]([c]2ccc([N+](C)(C)C)cc2)([c]2ccc([N+](C)(C)C)cc2)[c]2ccc([N+](C)(C)C)cc2)cc1", "> 100 µM"],
  ["COc1cc2c(c(OC)c1OC)-c1ccc(SC)c(=O)cc1[C@@H](NC(=O)C(F)(F)F)CC2", "> 100 µM"],
  ["COc1cc([N+](=O)[O-])c(S(=O)(=O)O)cc1-n1nc(C(=O)Nc2ccccc2)n[n+]1-c1cc(S(=O)(=O)[O-])c([N+](=O)[O-])cc1OC", "> 100 µM"],
  ["COC(=O)CN1C(=O)C2(C(=O)OC)OC1(c1ccc([N+](=O)[O-])cc1)C1C(=O)N(c3ccccc3)C(=O)C12 (centres undefined)", "> 100 µM"],
  ["CC(=O)C1C(=O)C(=O)N(c2ccc([N+](=O)[O-])cc2)C1=O (centres undefined)", "> 100 µM"],
  ["COC(=O)c1c(O)ccc2c1c1c(n2Cc2ccccc2OC)C(=O)c2ccccc2C1=O", "95.9 µM"],
  ["O=C1C=C(OCC=C(C(F)(F)F)C(F)(F)F)c2ccccc2C1=O", "19.5 µM"],
  ["CC(C)(C)OC(=O)[C@@H]1ON2O[C@H](OC3CCCC3(c3ccccc3)c3ccccc3)C[C@H]3OC(=O)[C@@H]1[C@H]32 (some centres undefined)", "> 100 µM"],
  ["CCC1(CC)N=C(C(F)(F)F)c2cc(C(=O)C(F)(F)F)c3ccccc3c2N1", "> 100 µM"],
  ["COc1ccccc1/C=C\\C(=O)C1COCN1 (centres undefined)", "33.9 µM"],
  ["CC(C)OC/N=C(/N)NC#N", "> 100 µM"],
  ["c1ccc2c(c1)c1c3c(c4c(n32)=NCCN4)CCC1", "> 100 µM"],
  ["O=S(=O)(O)c1ccc2c(N=Nc3ccc(S(=O)(=O)O)c4ccccc34)c(O)c(S(=O)(=O)O)cc2c1", "> 100 µM"],
  ["CC1C=CC(C(N)C(=O)O)O1 (centres undefined)", "> 100 µM"],
  ["Cn1c(=O)c(Oc2ccc(F)cc2F)cc2cnc(N[C@@H]3CCOC3)nc21", "> 25 µM"],
  ["Cc1cc(S(=O)(=O)Nc2nnc3ccccn23)c(S)cc1Cl", "> 100 µM"],
  ["C#C[C@@]1(O)[C@@H](CO)O[C@@H](n2cc(C(F)(F)F)c3c(N)ncnc32)[C@@H]1O", "> 100 µM"],
  ["CC(=O)Oc1c2ccsc2c(OC(C)=O)c2ccsc12", "3.17 µM"],
  ["OCCCCn1cc(Cn2ncc3c(NCc4ccccc4)ncnc32)nn1", "> 100 µM"],
  ["O=C(NCCOCCOCCOCCNC(=O)c1cc2c(o1)C(=O)c1ccccc1C2=O)NC12CC3CC(CC(C3)C1)C2", "8.03 µM"],
  ["O=C(CSCC(=O)N/N=C\\c1ccc(O)c(O)c1O)N/N=C\\c1ccc(O)c(O)c1O", "> 100 µM"],
  ["O=C(Nc1cc(Cl)ccc1O)c1ccccc1Nc1ccnc(C(F)(F)F)c1", "10.3 µM"],
  ["C=CCN1C[C@H](C)N([C@H](c2ccc(C(=O)N(CC)CC)cc2)c2cccc(OC)c2)C[C@H]1C", "> 100 µM"],
  ["CN(/N=C/c1ccccn1)C1=NCCCN1", "> 100 µM"],
  ["CCN(CC)CCN1c2nc3ccccc3cc2Sc2cc3ccccc3nc21", "11.9 µM"],
  ["NS(=O)(=O)c1ccc(NC(=O)C2C(=O)C(=O)N(c3ccc(S(N)(=O)=O)cc3)C2=O)cc1 (centres undefined)", "> 100 µM"],
  ["Cc1c2ccncc2c(C)c2c1sc1ccccc12", "26.7 µM"],
  ["CC(=O)NNc1nc(C)c(C(=O)NNC(=O)C(=O)Nc2c([N+](=O)[O-])ccc(C)c2C)s1", "> 100 µM"],
  ["O=C1Cc2cc(CCn3cncn3)c(Cl)cc2N1", "> 100 µM"],
  ["C=CCOCCC(CC=C)C(=O)CC(=O)OC (centres undefined)", "> 100 µM"],
  ["COc1cc(-c2nc3ccccc3o2)cc(CN2CCCCC2)c1O", "26.9 µM"],
  ["Clc1ccc2c(c1)N(C1CCCN(Cc3ccccc3)C1)c1ccccc1S2 (centres undefined)", "> 100 µM"],
  ["O=[N+]([O-])c1cc(-[n+]2cc([O-])on2)ccc1Cl", "27.1 µM"],
  ["CCc1cc2c(O)c(c1)Cc1cc(CC)cc(c1O)Cc1cc(CC)cc(c1O)Cc1cc(CC)cc(c1O)Cc1cc(CC)cc(c1O)Cc1cc(CC)cc(c1O)Cc1cc(CC)cc(c1O)C2", "71.7 µM"]
]}

====

- Tested on: T-47D breast
- Procedure details: NCI tumour cell line growth inhibition, 48 h
Value type: log10 TGI (log10 of the value in µM)

{"columns": ["Compound", "log10 TGI"],
 "data": [
  ["O=C1Nc2ccccc2/C1=C\\c1nc(-c2ccccc2F)n2ccccc12", 0.91],
  ["O=C1C=C(OCC=C(C(F)(F)F)C(F)(F)F)c2ccccc2C1=O", 0.57],
  ["CC(NC1=CC(=O)c2cccnc2C1=O)C(O)c1ccccc1 (configuration not stated)", 1.27],
  ["C[P+](c1ccccc1)(c1ccc(Cl)cc1)c1ccc(Cl)cc1", 1.69],
  ["COc1ccccc1[As]=[As]c1ccccc1OC (configuration not stated)", -0.70],
  ["Cc1ccc(S(=O)(=O)N/N=C2\\CCCCCCCCCCC2CN(C)C)cc1 (configuration not stated)", 1.48],
  ["N#Cc1nc(C#N)c(Sc2ccccc2)c(Sc2ccccc2)c1Sc1ccccc1", 0.39],
  ["c1ccc2c(c1)c1c3c(c4c(n32)=NCCN4)CCC1", 1.96],
  ["COc1ccc(-c2cc(-c3ccc(Cl)cc3)nc(NCCCCNc3ccnc4cc(Cl)ccc34)n2)cc1", 1.50],
  ["O=CC1C(Cl)=Nc2nc3ccccc3n2C1c1ccccc1 (configuration not stated)", 1.61]
]}

====

As shown below, each of these molecules has a reported TGI value.
- Tested on: DMS 273 small cell lung
- Procedure details: NCI tumour cell line growth inhibition, 48 h

{"columns": ["Molecule", "TGI"],
 "data": [
  ["COc1cc2c(c(OC)c1OC)-c1ccc(SC)c(=O)cc1[C@@H](NC(=O)C(F)(F)F)CC2", "> 100 µM"],
  ["COc1ccc(OC)c(/C=C2\\CCc3ccccc3C2=O)c1", "12.8 µM"],
  ["O=C(CCC(=O)Nc1cccc(C(F)(F)F)c1)CC(=O)c1ccc2ccccc2c1", "> 100 µM"],
  ["O=C(N/C(=C\\c1ccccc1O)c1nc2ccccc2[nH]1)c1ccccc1", "> 100 µM"],
  ["CC(=O)c1ccccc1NC(=O)C(=O)C(C(=O)c1ccccc1-c1ccccc1)C1OC(=O)c2ccccc21 (centres undefined)", "> 100 µM"],
  ["Cc1ccc(/C=C/C(=O)c2sc(-n3nc(-c4ccccc4)cc3-c3ccccc3)nc2C)cc1", "> 100 µM"],
  ["C[N+](C)(C)c1cc[c]([Sn]([c]2ccc([N+](C)(C)C)cc2)([c]2ccc([N+](C)(C)C)cc2)[c]2ccc([N+](C)(C)C)cc2)cc1", "> 100 µM"],
  ["CCN(CC)C(=S)SCC(=O)Nc1nc2c(s1)CCCC2", "> 100 µM"],
  ["Nc1nc(N)c2ncn(CCOC(c3ccccc3)P(=O)(O)O)c2n1 (centres undefined)", "> 100 µM"]
]}

====

- System: CCRF-CEM leukemia
- Procedure details: NCI tumour cell line growth inhibition, 48 h

{"columns": ["Compound", "Assay target", "TGI"],
 "data": [
  ["Cn1c2ccccc2c2ccc3c(c21)C(=O)C(c1ccccc1)=CC3=O", "CCRF-CEM leukemia", "> 100 µM"],
  ["O=C1Nc2ccccc2/C1=C\\c1nc(-c2ccccc2F)n2ccccc12", "CCRF-CEM leukemia", "> 100 µM"],
  ["CCOC(=O)OC1C(Br)C2CCC1(C)C2(C)C (centres undefined)", "CCRF-CEM leukemia", "17.3 µM"],
  ["CCc1cc2c(O)c(c1)Cc1cc(CC)cc(c1O)Cc1cc(CC)cc(c1O)Cc1cc(CC)cc(c1O)Cc1cc(CC)cc(c1O)Cc1cc(CC)cc(c1O)Cc1cc(CC)cc(c1O)C2", "CCRF-CEM leukemia", "> 100 µM"],
  ["CC(=O)c1ccccc1NC(=O)C(=O)C(C(=O)c1ccccc1-c1ccccc1)C1OC(=O)c2ccccc21 (centres undefined)", "CCRF-CEM leukemia", "> 100 µM"],
  ["CC1C=CC(C(N)C(=O)O)O1 (centres undefined)", "CCRF-CEM leukemia", "> 100 µM"],
  ["O=c1oc2ccccc2c(O)c1C(c1ccc(-c2ccccc2)cc1)c1c(O)c2ccccc2oc1=O", "CCRF-CEM leukemia", "93.8 µM"],
  ["COS(C)(=O)=O", "CCRF-CEM leukemia", "> 2 µM"],
  ["COC(=O)Cc1c([C@H]2[C@H](CC(=O)OC)c3ccccc3N2S(=O)(=O)c2ccc(C)cc2)[nH]c2ccccc12", "CCRF-CEM leukemia", "> 100 µM"],
  ["C=CCOCn1cc(F)c(=O)[nH]c1=O", "CCRF-CEM leukemia", "> 100 µM"],
  ["O=C1OCC(c2ccc(Cl)cc2)=C1Cl", "CCRF-CEM leukemia", "75.6 µM"],
  ["CC1=NN2C(c3ccc([N+](=O)[O-])cc3)=CSC2=NC(C)(C)C1", "CCRF-CEM leukemia", "> 100 µM"],
  ["O=C(Nc1ccc(Cl)cc1C(=O)O)c1ccc([N+](=O)[O-])cc1", "CCRF-CEM leukemia", "67.4 µM"],
  ["O=C(Nc1cc(Cl)ccc1O)c1ccccc1Nc1ccnc(C(F)(F)F)c1", "CCRF-CEM leukemia", "9.63 µM"],
  ["C/C=C/C(=O)[O-].C/C=C/C(=O)[O-].N.N.N.N.[Co+3].[O-][Cl+3]([O-])([O-])[O-]", "CCRF-CEM leukemia", "> 100 µM"],
  ["OC1CCCC2CCC[N-]C12.OC1CCCC2CCC[N-]C12.[O]=[V][OH] (centres undefined)", "CCRF-CEM leukemia", "12.2 µM"],
  ["CC(C)OC(=O)[C@H]1ON2O[C@H](O[C@@H]3CCCC[C@H]3c3ccccc3)C([Si](C)(C)c3ccccc3)[C@H]3OC(=O)[C@@H]1C32 (some centres undefined)", "CCRF-CEM leukemia", "> 100 µM"],
  ["Nc1nc(Cl)c2ncn(Cc3cccc(CCl)c3)c2n1", "CCRF-CEM leukemia", "> 30.7 µM"],
  ["CN(C)c1ccc(/C=N/c2nc3cc4sc(/N=C/c5ccc(N(C)C)cc5)nc4cc3s2)cc1", "CCRF-CEM leukemia", "> 100 µM"]
]}
